B1: OR4K15 (parent)
chain: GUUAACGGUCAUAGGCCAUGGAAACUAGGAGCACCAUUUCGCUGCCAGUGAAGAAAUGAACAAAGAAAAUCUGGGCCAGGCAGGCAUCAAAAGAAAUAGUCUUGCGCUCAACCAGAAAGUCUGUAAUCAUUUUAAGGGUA

# Variants of: B1
# Assay explanation: self-cleavage, relative activity (ratio to wild type); higher = more cleavage; in vitro, sequencing; the parent is a self-cleaving ribozyme
Label 1.0 when self-cleavage is at or above 0.6; anything below gets 0.0.

Here's what some known entries look like.
[[record]]
mutation_label = "U43C U120C"
assigned_class = 0.0

[[record]]
mutation_label = "U2A U12C"
assigned_class = 1.0

[[record]]
mutation_label = "A114G C128U"
assigned_class = 0.0

[[record]]
mutation_label = "A78G A91U"
assigned_class = 0.0


*Q* Is it the case that A47C U120A has self-cleavage reaching or exceeding 0.6?
*A* 1.0

*Q* Next variant up: A95C A116G
*A* 1.0

*Q* Next variant up: A22G U124G
*A* 1.0

*Q* Next variant up: U122C U133C
*A* 1.0

*Q* Next variant up: U43C A111G
*A* 0.0

*Q* Next variant up: U72A A91G
*A* 0.0

*Q* Next variant up: U19G G115A
*A* 0.0
